biological target: BTK (Homo sapiens, UniProt Q06187); assay: Degradation of BTK protein in Namalwa cells (Western blot; DC50, Dmax)
Sequence (Q06187 whole entry): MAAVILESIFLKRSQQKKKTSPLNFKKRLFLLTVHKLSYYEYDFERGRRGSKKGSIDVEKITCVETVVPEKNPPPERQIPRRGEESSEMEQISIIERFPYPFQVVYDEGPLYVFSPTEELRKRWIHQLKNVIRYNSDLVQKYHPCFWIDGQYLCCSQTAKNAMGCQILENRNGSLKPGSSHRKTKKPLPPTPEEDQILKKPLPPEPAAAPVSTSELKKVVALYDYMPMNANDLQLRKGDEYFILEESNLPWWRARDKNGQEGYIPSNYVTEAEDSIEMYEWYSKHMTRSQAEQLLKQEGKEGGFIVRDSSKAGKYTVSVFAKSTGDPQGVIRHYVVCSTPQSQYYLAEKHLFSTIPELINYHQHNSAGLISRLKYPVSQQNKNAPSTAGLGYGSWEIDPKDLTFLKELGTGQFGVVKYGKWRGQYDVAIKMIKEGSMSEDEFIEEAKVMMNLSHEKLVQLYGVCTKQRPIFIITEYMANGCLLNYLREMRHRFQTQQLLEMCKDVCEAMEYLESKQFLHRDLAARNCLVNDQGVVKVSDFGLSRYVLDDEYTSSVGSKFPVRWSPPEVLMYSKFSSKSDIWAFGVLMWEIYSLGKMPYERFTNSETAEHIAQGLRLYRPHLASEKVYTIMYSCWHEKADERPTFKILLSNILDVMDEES
Listed here are compounds together with their documented Dmax.

compound: Nc1ncnc2c1c(-c1ccc(Oc3ccccc3)cc1)nn2C1CCN(CC2CCN(CCC3CCN(c4ccc5c(c4)CN(C4CCC(=O)NC4=O)C5=O)CC3)CC2)CC1 (stereo not shown)
target-desc: BTK (Homo sapiens, UniProt Q06187)
Dmax: > 90%
//
compound: NC(=O)c1c(-c2ccc(Oc3ccccc3)cc2)nn2c1NCC[C@H]2C1CCN(CC2CCN(CCN3CCC(c4ccc5c(c4)CN(C4CCC(=O)NC4=O)C5=O)CC3)CC2)CC1 (stereo partly shown)
target-desc: BTK (Homo sapiens, UniProt Q06187)
Dmax: > 75%
//
compound: NC(=O)c1c(-c2ccc(Oc3ccccc3)cc2)nn2c1NCCC2C1CCN(CC2CCN(C(=O)N3CCN(C4CCN(c5ccc6c(c5)C(=O)N(C5CCC(=O)NC5=O)C6=O)CC4)CC3)CC2)CC1 (stereo not shown)
target-desc: BTK (Homo sapiens, UniProt Q06187)
Dmax: > 90%
//
compound: Nc1ncnc2c1c(-c1ccc(Oc3ccccc3)cc1)nn2C1CCN(C2CCN(CCCN3CCN(c4ccc5c(c4)C(=O)N(C4CCC(=O)NC4=O)C5=O)CC3)CC2)CC1 (stereo not shown)
target-desc: BTK (Homo sapiens, UniProt Q06187)
Dmax: > 75%
//
compound: Nc1ncnc2c1c(-c1ccc(Oc3ccccc3)cc1)nn2C1CCN(C2CCN(C(=O)N3CCC(CCCC4CCN(c5ccc6c(c5)CN(C5CCC(=O)NC5=O)C6=O)CC4)CC3)CC2)CC1 (stereo not shown)
target-desc: BTK (Homo sapiens, UniProt Q06187)
Dmax: > 75%
//
compound: NC(=O)c1c(-c2ccc(Oc3ccccc3)cc2)nn2c1NCC[C@H]2C1CCN(C(=O)N2CCC(CN3CCN(c4ccc5c(c4)C(=O)N(C4CCC(=O)NC4=O)C5=O)CC3)CC2)CC1 (stereo partly shown)
target-desc: BTK (Homo sapiens, UniProt Q06187)
Dmax: > 90%
//
compound: NC(=O)c1c(-c2ccc(Oc3ccccc3)cc2)nn2c1NCC[C@H]2C1CCN(C2CCN(C(=O)N3CCC(C4CCN(c5ccc6c(c5)C(=O)N(C5CCC(=O)NC5=O)C6=O)CC4)CC3)CC2)CC1 (stereo partly shown)
target-desc: BTK (Homo sapiens, UniProt Q06187)
Dmax: > 90%
//
compound: Nc1ncnc2c1c(-c1ccc(Oc3ccccc3)cc1)nn2C1CCN(C2CCN(C(=O)N3CCN(CCN4CCC(c5ccc6c(c5)C(=O)N(C5CCC(=O)NC5=O)C6=O)CC4)CC3)CC2)CC1 (stereo not shown)
target-desc: BTK (Homo sapiens, UniProt Q06187)
Dmax: > 75%
//
compound: NC(=O)c1c(-c2ccc(Oc3ccccc3)cc2)nn2c1NCC[C@H]2C1CCN(C2CCN(CCN3CCC(c4ccc5c(c4)C(=O)N(C4CCC(=O)NC4=O)C5=O)CC3)CC2)CC1 (stereo partly shown)
target-desc: BTK (Homo sapiens, UniProt Q06187)
Dmax: > 75%
//
compound: NC(=O)c1c(-c2ccc(Oc3ccccc3)cc2)nn2c1NCCC2C1CCN(C2CCN(C(=O)N3CCC(CN4CCN(c5ccc6c(c5)CN(C5CCC(=O)NC5=O)C6=O)CC4)CC3)CC2)CC1 (stereo not shown)
target-desc: BTK (Homo sapiens, UniProt Q06187)
Dmax: > 90%
